- Run description: Toxicity in Balb/c mouse infected with blood stage Plasmodium yoelii assessed as animal death at 60 mg/kg, ip QD for 5 consecutive days and measured on day 30
- Type: organism-based
- Measurement context: in vivo, 120 h, time 5 day
Quantity kind: Activity

[
  {
    "Structure": "Cl.Cn1cc(CN2CCC3(CCN(c4ncc(C(=O)NO)cn4)CC3)C2)c2ncccc21",
    "Quantity kind": "Activity",
    "Experimental result": "Non-Toxic"
  },
  {
    "Structure": "Cl.Cn1cc(CN2CCC3(CCN(c4ncc(C(=O)NO)cn4)CC3)C2)c2cccnc21",
    "Quantity kind": "Activity",
    "Experimental result": "Non-Toxic"
  },
  {
    "Structure": "Cl.Cn1cc(CN2CCC3(CCN(c4ncc(C(=O)NO)cn4)CC3)C2)c2ccccc21",
    "Quantity kind": "Activity",
    "Experimental result": "Toxic"
  },
  {
    "Structure": "Cl.Cn1cc(CN2CCC3(CCN(c4ncc(C(=O)NO)cn4)CC3)C2)c2cnccc21",
    "Quantity kind": "Activity",
    "Experimental result": "Toxic"
  }
]

====

- Run description: Selectivity index, ratio of IC50 for cytotoxicity against human HEK293T cells assessed to IC50 for antiplasmodial activity against synchronized ring stage Plasmodium falciparum 3D7 infected in human erythrocytes
- Type: toxicity, cell-based
- Measurement context: read-out: Ratio IC50
Record y whenever selectivity ratio is at 60 or higher; record n when lower.

[
  {
    "Structure": "Cn1nc(CN2CCC3(CCN(c4ncc(C(=O)NO)cn4)CC3)C2)c2ccccc21",
    "Group": "y"
  },
  {
    "Structure": "O=C(NO)c1cnc(N2CCC3(CCN(CC4CCCC4)C3)CC2)nc1",
    "Group": "y"
  },
  {
    "Structure": "O=C(NO)c1cnc(N2CCC3(CCN(Cc4cccc5cccnc45)C3)CC2)nc1",
    "Group": "n"
  },
  {
    "Structure": "Cl.Cn1cc(CN2CCC3(CCN(c4ncc(C(=O)NO)cn4)CC3)C2)c2ncccc21",
    "Group": "y"
  },
  {
    "Structure": "O=C(NO)c1cnc(N2CCC3(CCN(Cc4cccc5ncccc45)C3)CC2)nc1",
    "Group": "n"
  }
]

QUERY: Exam item: decide whether the reported selectivity ratio for O=C(NO)c1cnc(N2CCC3(CCN(Cc4coc5ccccc45)C3)CC2)nc1 is at least 60.
RESULT: n

====

Entries and their selectivity ratio values follow.
- Run description: Selectivity index, ratio of IC50 for cytotoxicity against human HepG2 cells assessed to IC50 for antiplasmodial activity against synchronized ring stage Plasmodium falciparum 3D7 infected in human erythrocytes
- Format: toxicity, cell-based
- Measurement context: read-out: Ratio IC50

These recorded examples may help you get a feel for the data.
[
  {
    "Structure": "O=C(NO)c1cnc(N2CCC3(CCN(CC4CCCCC4)C3)CC2)nc1",
    "selectivity ratio": 160
  },
  {
    "Structure": "O=C(NO)c1cnc(N2CCC3(CCN(Cc4cccc5ccncc45)C3)CC2)nc1",
    "selectivity ratio": 51
  }
]

QUERY: # get_value(readout='selectivity ratio', item= O=C(NO)c1cnc(N2CCC3(CCN(Cc4ccoc4)C3)CC2)nc1 )
RESULT: 30

QUERY: Same question for Cn1nc(CN2CCC3(CCN(c4ncc(C(=O)NO)cn4)CC3)C2)c2ccccc21 please.
RESULT: 29

QUERY: Same question for O=C(NO)c1cnc(N2CCC3(CCN(Cc4cccc5cccnc45)C3)CC2)nc1 please.
RESULT: 28

====

- Run description: Cmax in Balb/c mouse at 10 mg/kg, po administered as single dose measured upto 24 hrs by LC-MS/MS analysis
- Type: ADME, organism-based
- Design: route oral, dose 10 mg/kg, time <=24
- Measurement context: in vivo
Quantity kind: Cmax
Kindly write the number and append the unit.

QUERY: # get_value(readout='Cmax', item= Cl.O=C(NO)c1cnc(N2CCC3(CCN(Cc4c[nH]c5ccccc45)C3)CC2)nc1 )
RESULT: 2.49 ng/mL

====

- Tested on: Plasmodium falciparum
- Run description: Antiplasmodial activity against artemisinin-resistant ring stage Plasmodium falciparum 6320 infected in human erythrocytes assessed as reduction in parasite growth incubated for 72 hrs by Giemsa staining based light microscopic method
- Assay type: functional, organism-based
- Measurement context: Plasmodium falciparum, 6320, Erythrocyte
Entries and their pIC50 values follow.
Entry type: numeric. Quantity: pIC50, the -log10 of concentration in molar units.

These recorded examples may help you get a feel for the data.
[
  {
    "Molecule": "Cl.Cn1cc(CNCC2CCN(c3ncc(C(=O)NO)cn3)CC2)c2ccccc21 [QUISINOSTAT HYDROCHLORIDE]",
    "Quantity kind": "pIC50",
    "Experimental result": 8.79
  },
  {
    "Molecule": "Cl.Cn1cc(CN2CCC3(CCN(c4ncc(C(=O)NO)cn4)CC3)C2)c2ncccc21",
    "Quantity kind": "pIC50",
    "Experimental result": 8.42
  },
  {
    "Molecule": "Cl.Cn1cc(CN2CCC3(CCN(c4ncc(C(=O)NO)cn4)CC3)C2)c2ccncc21",
    "Quantity kind": "pIC50",
    "Experimental result": 8.41
  },
  {
    "Molecule": "Cl.Cn1cc(CN2CCC3(CCN(c4ncc(C(=O)NO)cn4)CC3)C2)c2cnccc21",
    "Quantity kind": "pIC50",
    "Experimental result": 8.08
  },
  {
    "Molecule": "Cl.Cn1cc(CN2CCC3(CCN(c4ncc(C(=O)NO)cn4)CC3)C2)c2cccnc21",
    "Quantity kind": "pIC50",
    "Experimental result": 8.28
  },
  {
    "Molecule": "Cl.Cn1cc(CN2CCC3(CCN(c4ncc(C(=O)NO)cn4)CC3)C2)c2ccccc21",
    "Quantity kind": "pIC50",
    "Experimental result": 8.39
  },
  {
    "Molecule": "C[C@H]1[C@@H](O)O[C@@H]2O[C@@]3(C)CC[C@H]4[C@H](C)CC[C@@H]1[C@@]24OO3",
    "Quantity kind": "pIC50",
    "Experimental result": 8.23
  }
]

Now turn to the next molecule.
QUERY: Which measured pIC50 belongs to Cl.O=C(NO)c1cnc(N2CCC3(CCN(Cc4c[nH]c5ccccc45)C3)CC2)nc1 , tested on Plasmodium falciparum?
RESULT: 8.54

====

- Run description: AUC (0 to t) in Balb/c mouse at 10 mg/kg, po administered as single dose measured upto 24 hrs by LC-MS/MS analysis
- Format: ADME, organism-based
- Design: route oral, dose 10 mg/kg, time <=24
- Measurement context: in vivo
Quantity kind: AUC(0-t) at 24 h

QUERY: # get_value(readout='AUC(0-t) at 24 h', item= Cl.O=C(NO)c1cnc(N2CCC3(CCN(Cc4c[nH]c5ccccc45)C3)CC2)nc1 )
RESULT: 2.94 ng·h/mL

====

- Run description: Clearance in mouse liver microsomes incubated upto 45 mins in presence of NADPH by LC-MS/MS analysis
- Format: ADME, Microsome
- Measurement context: read-out: CLH
Quantity kind: CLint scaled
Kindly write the number and append the unit.

[
  {
    "Compound": "Cl.Cn1cc(CN2CCC3(CCN(c4ncc(C(=O)NO)cn4)CC3)C2)c2ncccc21",
    "Experimental result": "40.4 mL/min/kg"
  },
  {
    "Compound": "Cl.Cn1cc(CN2CCC3(CCN(c4ncc(C(=O)NO)cn4)CC3)C2)c2ccncc21",
    "Experimental result": "29.7 mL/min/kg"
  },
  {
    "Compound": "Cl.Cn1cc(CN2CCC3(CCN(c4ncc(C(=O)NO)cn4)CC3)C2)c2cnccc21",
    "Experimental result": "43.5 mL/min/kg"
  },
  {
    "Compound": "Cl.O=C(NO)c1cnc(N2CCC3(CCN(Cc4c[nH]c5ccccc45)C3)CC2)nc1",
    "Experimental result": "121 mL/min/kg"
  },
  {
    "Compound": "Cl.Cn1cc(CNCC2CCN(c3ncc(C(=O)NO)cn3)CC2)c2ccccc21 [QUISINOSTAT HYDROCHLORIDE]",
    "Experimental result": "410 mL/min/kg"
  },
  {
    "Compound": "Cl.Cn1cc(CN2CCC3(CCN(c4ncc(C(=O)NO)cn4)CC3)C2)c2ccccc21",
    "Experimental result": "424 mL/min/kg"
  }
]

Now turn to the next compound.
QUERY: # get_value(readout='CLint scaled', item= Cl.Cn1cc(CN2CCC3(CCN(c4ncc(C(=O)NO)cn4)CC3)C2)c2cccnc21 )
RESULT: 33.1 mL/min/kg

====

- Measured on: Histone deacetylase 2 (Homo sapiens)
- Sequence (Q92769 whole entry): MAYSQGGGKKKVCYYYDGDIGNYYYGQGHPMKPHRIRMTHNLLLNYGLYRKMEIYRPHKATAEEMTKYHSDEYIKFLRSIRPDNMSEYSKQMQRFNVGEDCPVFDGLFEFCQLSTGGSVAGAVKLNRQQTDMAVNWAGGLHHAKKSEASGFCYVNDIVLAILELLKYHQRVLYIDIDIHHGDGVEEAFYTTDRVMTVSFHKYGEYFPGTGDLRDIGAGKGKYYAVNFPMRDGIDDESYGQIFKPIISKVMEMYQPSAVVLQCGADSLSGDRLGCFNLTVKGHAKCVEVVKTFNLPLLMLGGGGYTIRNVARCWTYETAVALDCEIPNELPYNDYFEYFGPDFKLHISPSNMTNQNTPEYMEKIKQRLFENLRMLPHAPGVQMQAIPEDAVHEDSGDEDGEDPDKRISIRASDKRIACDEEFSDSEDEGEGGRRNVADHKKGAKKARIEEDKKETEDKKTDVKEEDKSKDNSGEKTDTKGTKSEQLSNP
Quantity kind: IC50 (nM)
Could you give me the number in nM? Just the number is fine.

QUERY: # get_value(readout='IC50', item= Cl.O=C(NO)c1cnc(N2CCC3(CCN(Cc4c[nH]c5ccccc45)C3)CC2)nc1 )
RESULT: 1.8

Data origin, for the record: ChEMBL document CHEMBL4706683
